Listed here: items and their measured Activity.
Tested on: PC-3
Experiment: Cytotoxicity against human PC-3 cells assessed as reduction in cell viability at 100 uM measured after 24 hrs by MTT assay relative to control
Assay type: functional
Give the number; % is assumed, so skip it.

Worked cases, Activity given:
compound-smiles | measured-number
Cc1ccc(C(=O)/C=C/c2cnn(-c3ccccc3)n2)c(C)c1 | 0
O=C(/C=C/c1cnn(-c2ccccc2)n1)c1cccs1 | 24.23
O=C(/C=C/c1cnn(-c2ccccc2)n1)c1ccccc1 | 6.38

Now turn to the next molecule.
Data request: Let me know recorded Activity for COc1ccc(C(=O)/C=C/c2cnn(-c3ccccc3)n2)c(OC)c1 , thanks.
Data returned: 5.37
